target: Cytochrome P450 3A4 (Homo sapiens, UniProt P08684)
Sequence (P08684 whole entry): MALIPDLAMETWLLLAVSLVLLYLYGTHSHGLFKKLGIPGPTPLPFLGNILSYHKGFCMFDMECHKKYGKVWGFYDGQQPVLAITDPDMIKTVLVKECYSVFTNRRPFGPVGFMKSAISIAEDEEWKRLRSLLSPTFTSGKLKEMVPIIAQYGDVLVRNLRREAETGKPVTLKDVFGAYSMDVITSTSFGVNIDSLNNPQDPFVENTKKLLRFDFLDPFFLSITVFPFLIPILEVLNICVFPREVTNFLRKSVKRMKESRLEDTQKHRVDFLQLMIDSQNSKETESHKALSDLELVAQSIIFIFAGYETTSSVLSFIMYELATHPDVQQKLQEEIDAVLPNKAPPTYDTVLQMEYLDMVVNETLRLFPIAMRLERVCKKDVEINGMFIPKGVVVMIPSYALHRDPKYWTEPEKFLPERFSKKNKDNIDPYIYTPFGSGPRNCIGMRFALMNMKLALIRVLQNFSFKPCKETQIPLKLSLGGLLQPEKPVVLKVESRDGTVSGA
quantity_measured: AC50

Here is how some compounds turned out for AC50.
>>> experimental_value("COc1cc(OC)c(C2C(C(=O)O)c3ccccc3C(=O)N2C)cc1OC (stereo not drawn)")
"0.355 µM (inconclusive)"
>>> experimental_value("Cc1cccc(NC(=S)NC(=O)CCc2ccccc2)c1")
"25.1 µM (inconclusive)"
>>> experimental_value("COC(=O)c1cc(OC)c(OC)cc1N=C(S)N1CCN(C)CC1")
"14.1 µM (inconclusive)"

Here are 4 compounds. What values of AC50 were reported for them?
1. O=C(N/N=C/c1ccc(Sc2nc3ccccc3s2)c([N+](=O)[O-])c1)c1ccccn1
2. COc1ccc(-c2nc3cnc(OC)nc3n(-c3ccc(OC)cc3)c2=O)cc1
3. Cc1ccc(NC(=S)c2nc3ccccc3s2)cc1
4. N[C@H](CCC(=O)O)C(=O)O [D-GLUTAMATE]

**Result**
3.55 µM (inconclusive)
15.8 µM (inconclusive)
22.4 µM (inconclusive)
25.1 µM (inconclusive)

Here are 2 compounds. What values of AC50 were reported for them?
1. Cn1c(=O)c(-c2ccccc2)nc2cncnc21
2. O=C1CCCC=C1[C@@H](O)COCc1ccccc1

**Result**
1: 12.6 µM (inconclusive); 2: 3.16 µM (inconclusive)

Here are 6 compounds. What values of AC50 were reported for them?
1. CNC(=O)[C@@H]1O[C@@H](n2cnc3c(NCc4ccc(N)cc4)ncnc32)[C@@H](O)[C@H]1O
2. O=c1cnc2cnc(N3CCOCC3)nc2n1Cc1cccs1
3. COc1ccc2cc(C#N)c(SCC(=O)NNC(=O)Cc3ccccc3)nc2c1
4. CC(=O)NCCNc1nc(-c2ccccc2C(F)(F)F)nc2ccccc12
5. Cc1noc(C)c1C(=O)N1CCC2(CCCN(C(=O)Nc3cccc(F)c3)C2)CC1
6. CCN(CC)CCN1C(=O)C(O)=C(C(=O)c2ccc(OC)cc2)C1c1cccs1 (stereo not drawn)

**Result**
1. 25.1 µM (inconclusive)
2. 15.8 µM (inconclusive)
3. 1.26 µM (inconclusive)
4. 12.6 µM (inconclusive)
5. 15.8 µM (inconclusive)
6. 17.8 µM (inconclusive)

Here are 8 compounds. What values of AC50 were reported for them?
1. CNc1ccnc(-c2c(C)noc2C)n1
2. N#CCCn1c(=O)c(-c2cc(F)cc(F)c2)nc2cnc(OCc3ccccc3)nc21
3. COC(=O)CSC1=C(C#N)C(c2cccc(F)c2)CC(=O)N1 (stereo not drawn)
4. CN1CCCC2(CCN(C(=O)c3cc(C(F)(F)F)cc(C(F)(F)F)c3)CC2)C1
5. CCn1c(SCc2cccc(C)c2)nnc1-c1ccccc1
6. Cc1ccc(N2C(=O)/C(=C/Nn3cnnc3)c3ccccc3C2=O)cc1
7. COc1ccc(NC(=O)N2CC3(CCN(C(=O)c4ccc(OC)cc4)CC3)C2)cc1
8. O=C(Nc1ccc(Cl)cc1)OCCn1nnnc1C(c1ccccc1Cl)N1CCOCC1 (stereo not drawn)

**Result**
1: 39.8 µM (inconclusive); 2: 15.8 µM (inconclusive); 3: 39.8 µM (inconclusive); 4: 25.1 µM (inconclusive); 5: 3.16 µM (inconclusive); 6: 15.8 µM (inconclusive); 7: 25.1 µM (inconclusive); 8: 0.891 µM (inconclusive)

* * *

biological target: Cytochrome P450 3A4 (Homo sapiens); conditions: Potency
quantity_measured: AC50

Here is how some compounds turned out for AC50.
>>> experimental_value("COC(=O)CNC(=O)[C@@]1(C)C=C[C@@H](Cc2ccccc2)N1C(C)=O")
"20 µM (inconclusive)"
>>> experimental_value("CCCCOCCOP(=O)(OCCOCCCC)OCCOCCCC")
"25.1 µM (inconclusive)"

From here, focus on the item given below.
AC50 in this record for Cc1c(N=C=O)cccc1N=C=O : 15.8 µM (inconclusive)

* * *

Task for the reader: assign each of the following compounds its reported AC50.
Target: DNA repair protein RAD52 homolog (Homo sapiens, UniProt P43351)
Sequence (P43351 whole entry): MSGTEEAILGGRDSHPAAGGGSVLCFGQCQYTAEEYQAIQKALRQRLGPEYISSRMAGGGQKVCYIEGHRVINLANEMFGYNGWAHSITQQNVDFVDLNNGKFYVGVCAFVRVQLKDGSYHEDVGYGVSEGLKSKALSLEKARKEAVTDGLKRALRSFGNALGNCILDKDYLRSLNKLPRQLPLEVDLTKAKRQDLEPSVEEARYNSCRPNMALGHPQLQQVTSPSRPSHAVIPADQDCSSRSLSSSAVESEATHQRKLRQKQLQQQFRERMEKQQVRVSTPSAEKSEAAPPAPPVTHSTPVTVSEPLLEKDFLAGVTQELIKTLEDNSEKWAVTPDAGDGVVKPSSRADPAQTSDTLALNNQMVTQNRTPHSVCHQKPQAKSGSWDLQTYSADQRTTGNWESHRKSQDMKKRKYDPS
Format: functional, biochemical
Activity calls are given as the source filed them.

Here are 2 compounds. What values of AC50 were reported for them?
1. COc1cc2nc(N(CCCN(C)C)C(=O)c3ccc(C(=O)c4ccccc4)cc3)sc2cc1OC
2. CN(C)CCNC(=O)c1cccc(-c2cc(NC=O)c3ncc(-c4cccc(C(F)(F)F)c4)n3c2)c1

**Result**
15.8 µM (active)
4.34 µM (active)

Here are 5 compounds. What values of AC50 were reported for them?
1. CCN(CC)CCOc1ccc2c(c1)C(=NNC(=O)c1ccccn1)c1cc(OCCN(CC)CC)ccc1-2
2. COc1ccc2c(c1O)-c1cccc3c1[C@@H](C2)N(C)CC3
3. CN(C)CCOc1ccc2c(c1)C(=O)C(=Cc1ncc([N+](=O)[O-])n1C)C2
4. CC[C@@H](C)[C@@H]1CN([C@@H](CN2CCC[C@H]2CN2C(N)=NC[C@H]2CC(C)C)C(C)C)C(=N)N1CCc1ccc(Cl)c(Cl)c1
5. O=C1Nc2cc(C(=O)NCCCN3CCCC3)ccc2S/C1=C/c1cccc(Cl)c1

**Result**
1: < 0.15 µM (active); 2: 10.7 µM (active); 3: 7.08 µM (active); 4: 17.3 µM (active); 5: 7.29 µM (active)

Here are 2 compounds. What values of AC50 were reported for them?
1. NC1=NC[C@H](Cc2ccc(O)cc2)N1CCC12CC3CC(CC(C3)C1)C2
2. CCN(CC)CC(O)Cn1c(C)c(-c2ccccc2)c2cc([N+](=O)[O-])ccc21 (centres undefined)

**Result**
["18.5 µM (active)", "8.3 µM (active)"]

* * *

Biological target: Long-chain-fatty-acid--AMP ligase FadD28 (Mycobacterium tuberculosis, UniProt P9WQ59)
Sequence (P9WQ59 whole entry): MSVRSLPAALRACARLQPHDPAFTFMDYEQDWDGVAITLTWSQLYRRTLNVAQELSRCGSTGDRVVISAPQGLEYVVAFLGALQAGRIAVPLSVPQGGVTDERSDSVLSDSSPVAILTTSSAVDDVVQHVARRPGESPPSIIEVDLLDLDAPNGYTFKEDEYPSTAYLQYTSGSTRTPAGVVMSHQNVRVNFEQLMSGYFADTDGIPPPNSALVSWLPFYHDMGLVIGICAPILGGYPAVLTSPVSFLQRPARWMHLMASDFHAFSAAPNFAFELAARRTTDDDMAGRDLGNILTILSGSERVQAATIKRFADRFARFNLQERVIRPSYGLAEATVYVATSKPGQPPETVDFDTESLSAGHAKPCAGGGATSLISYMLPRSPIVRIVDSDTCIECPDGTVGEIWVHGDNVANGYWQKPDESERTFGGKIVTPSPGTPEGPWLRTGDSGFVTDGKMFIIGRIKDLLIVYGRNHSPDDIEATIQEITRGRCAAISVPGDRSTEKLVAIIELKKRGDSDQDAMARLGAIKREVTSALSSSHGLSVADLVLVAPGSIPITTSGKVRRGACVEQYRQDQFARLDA
Experiment: Fluorescence polarization aasay to screen for inhibitors that compete for the binding of FadD28 to a bisubstrate Measured in Biochemical System Using Plate Reader - 2147-01_Inhibitor_Dose_CherryPick_Activity.
Format: functional, Mycobacterium tuberculosis H37Rv
Activity calls are given as the source filed them. No rule for the calls is given here. Numbered stars: 1 amine (or outer) side, 2 acyl side, 3 side chain; on linkers, the order of the positions; unused ones are H or OH. Square brackets hold non-standard residues; d marks the D form. Peptide text beside a SMILES is read from it. ξ: configuration not given here. X1 = CCCCCCC[C@H](O)C[C@@H](N[*:1])[C@@H](O)C(=O)[*:2]; X3 = COc1ccc(CCCC(N[*:1])C(=O)[*:2])cc1; ξThr(3R) = C[C@@H](O)C(N)C(=O)O; NMeN = CN[C@@H](CC(N)=O)C(=O)O; X2 = C/C=C(/N[*:1])C(=O)[*:2]; Dhb = C/C=C(\N)C(=O)O; Sar = CNCC(=O)O
Choose the fitting class; nothing outside active, inactive is accepted.

>>> category_label("COc1ccc(-c2nnn(CC(=O)c3c[nH]c4ccccc34)n2)cc1OC")
"inactive"
>>> category_label("C/C=C1\\NC(=O)[C@H](CC(N)=O)N(C)C(=O)C([C@@H](C)O)NC(=O)C(CCCc2ccc(OC)cc2)NC(=O)[C@H](C(C)C)NC(=O)/C(=C\\C)NC(=O)[C@H](O)[C@@H](C[C@@H](O)CCCCCCC)NC(=O)[C@H](C)NC(=O)CN(C)C(=O)[C@H](CCC(N)=O)NC1=O (stereo partly drawn) (cyclo(A[X1][X2]V[X3][ξThr(3R)][NMeN][Dhb]Q[Sar]))")
"inactive"
>>> category_label("CC1Oc2ccccc2C=C1/C=N/Nc1ccc(C(=O)O)cc1 (stereo not given)")
"active"
>>> category_label("Cc1cccc(NC(=O)CN2C(=O)N/C(=C/c3cc(C)n(-c4ccncc4)c3C)C2=O)c1")
"active"

// next entry
**Query** Look up the recorded call for O=C(CNC(=O)c1ccc([N+](=O)[O-])cc1)N/N=C/c1c[nH]c2ccccc12 in this test.
**Result** active

The origin of these recorded values is ChEMBL document CHEMBL1201862.
